For each entry below, report its Ki value.
Target: ACK1 (Homo sapiens, UniProt Q07912)
Construct: a fusion of an N-terminal (His)6 Tag with amino acids 117 to 489 of ACK1; (His)6 (N)
Sequence (Q07912 117-489): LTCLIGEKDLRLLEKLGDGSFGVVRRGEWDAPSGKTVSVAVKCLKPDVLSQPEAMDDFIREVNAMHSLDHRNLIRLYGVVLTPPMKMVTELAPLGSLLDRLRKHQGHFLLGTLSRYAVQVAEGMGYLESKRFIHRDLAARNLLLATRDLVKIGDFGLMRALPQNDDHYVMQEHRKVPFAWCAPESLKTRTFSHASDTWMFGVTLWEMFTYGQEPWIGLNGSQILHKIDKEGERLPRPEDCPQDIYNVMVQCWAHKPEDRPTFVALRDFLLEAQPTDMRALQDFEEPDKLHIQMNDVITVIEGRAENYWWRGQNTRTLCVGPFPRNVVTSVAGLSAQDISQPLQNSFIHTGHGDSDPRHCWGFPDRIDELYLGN
Assay: ACK1 Enzymatic Assay (PGT/autophosphorylation ELISA)

Can you look up Ki on ACK1 (Homo sapiens, UniProt Q07912) for COC(C)(C)CCn1nc(Nc2c(C)cccc2C)c2ccc(Nc3ccc(N4CC(C)NC(C)C4)cc3)cc21 (stereo not shown) [Compound 60] ? < 10 nM

Input Cc1cccc(C)c1Nc1nn(CCC(O)CO)c2nc(Nc3ccccc3)ncc12 (stereo not shown) [Compound 34] 10 to 100 nM

Input Cc1cccc(C)c1Nc1nn(CCN2CCOCC2)c2nc(Nc3ccc(N4CCN(C)CC4)cc3)ncc12 [Compound 53] 10 to 100 nM

Input COC(C)(C)CCn1nc(Nc2ccccc2)c2cnc(Nc3ccccc3)nc21 [Compound 74] > 100 nM

Input COC(C)(C)CCn1nc(Nc2c(C)cccc2C)c2cnc(Nc3ccc(N4CCN(C)CC4)cc3)nc21 [Compound 55] < 10 nM

Input COC(C)(C)CCn1nc(Nc2c(C)cccc2C)c2cnc(Nc3ccc(OCCCN4CCCCC4)c(F)c3)nc21 [Compound 57] 10 to 100 nM

Input C=CCCn1nc(Nc2c(C)cccc2C)c2cnc(Nc3ccccc3)nc21 [Compound 33] 10 to 100 nM
